# Measurement Target: c-Met protein receptor on human umbilical vein endothelial cells (HUVEC) (human, UniProt P08581 25-1390)
# Sequence (P08581 25-1390): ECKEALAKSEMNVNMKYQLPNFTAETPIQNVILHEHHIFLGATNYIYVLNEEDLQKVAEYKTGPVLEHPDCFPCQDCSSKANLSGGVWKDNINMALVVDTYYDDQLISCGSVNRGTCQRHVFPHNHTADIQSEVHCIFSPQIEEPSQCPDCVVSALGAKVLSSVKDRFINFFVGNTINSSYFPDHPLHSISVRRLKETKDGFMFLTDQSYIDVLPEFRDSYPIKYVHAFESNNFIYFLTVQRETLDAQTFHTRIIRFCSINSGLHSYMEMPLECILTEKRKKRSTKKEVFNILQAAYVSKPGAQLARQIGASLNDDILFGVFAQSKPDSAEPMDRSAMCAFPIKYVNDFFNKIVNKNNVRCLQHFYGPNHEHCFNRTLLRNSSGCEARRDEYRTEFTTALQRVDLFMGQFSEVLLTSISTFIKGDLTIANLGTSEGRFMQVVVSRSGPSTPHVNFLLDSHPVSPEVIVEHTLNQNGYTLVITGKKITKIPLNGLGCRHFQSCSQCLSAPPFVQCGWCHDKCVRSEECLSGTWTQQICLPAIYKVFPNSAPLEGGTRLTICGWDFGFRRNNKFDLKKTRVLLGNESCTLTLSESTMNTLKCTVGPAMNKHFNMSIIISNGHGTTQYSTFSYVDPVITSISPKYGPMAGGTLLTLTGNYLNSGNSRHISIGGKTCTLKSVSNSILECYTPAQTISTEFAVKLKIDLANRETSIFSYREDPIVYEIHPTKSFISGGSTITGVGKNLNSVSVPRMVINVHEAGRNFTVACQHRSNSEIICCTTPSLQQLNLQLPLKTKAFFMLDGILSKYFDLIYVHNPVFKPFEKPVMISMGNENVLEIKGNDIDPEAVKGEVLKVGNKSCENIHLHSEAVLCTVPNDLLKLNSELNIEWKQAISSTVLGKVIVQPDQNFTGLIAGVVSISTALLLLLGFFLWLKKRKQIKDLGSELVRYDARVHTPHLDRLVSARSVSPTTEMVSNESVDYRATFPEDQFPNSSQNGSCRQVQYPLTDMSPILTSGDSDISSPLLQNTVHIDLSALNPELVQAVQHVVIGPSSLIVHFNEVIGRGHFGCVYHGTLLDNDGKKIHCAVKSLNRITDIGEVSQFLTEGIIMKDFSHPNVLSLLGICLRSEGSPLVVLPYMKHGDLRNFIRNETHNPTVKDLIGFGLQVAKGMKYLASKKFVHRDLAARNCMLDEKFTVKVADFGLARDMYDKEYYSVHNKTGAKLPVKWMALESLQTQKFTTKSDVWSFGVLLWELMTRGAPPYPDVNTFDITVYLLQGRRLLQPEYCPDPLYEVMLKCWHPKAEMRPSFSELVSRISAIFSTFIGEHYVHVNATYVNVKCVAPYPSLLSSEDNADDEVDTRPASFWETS
# Assay Name: cell-based or functional assay
This section presents binders with their documented Relative Migration (%) (HUVEC migration assay) values.
I only need the number, in %, no unit after it.

Solved cases below.
[[record]]
binder = "VH0/Vk2 (antibody, V domains shown, also called anti-cMet candidate antibody VH0/Vk2) VH: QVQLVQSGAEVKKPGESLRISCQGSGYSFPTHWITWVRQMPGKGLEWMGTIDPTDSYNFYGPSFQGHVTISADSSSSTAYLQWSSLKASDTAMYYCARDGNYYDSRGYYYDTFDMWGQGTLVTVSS VL: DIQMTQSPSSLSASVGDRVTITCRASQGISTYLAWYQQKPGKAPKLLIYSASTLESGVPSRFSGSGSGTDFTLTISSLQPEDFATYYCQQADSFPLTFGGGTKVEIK"
value_observed = 163

[[record]]
binder = "VH5/Vk0 (antibody, V domains shown, CDR-grafted variant of the IgG1-based anti-cMet antibody 1E4; also called anti-cMet candidate antibody VH5/Vk0) VH: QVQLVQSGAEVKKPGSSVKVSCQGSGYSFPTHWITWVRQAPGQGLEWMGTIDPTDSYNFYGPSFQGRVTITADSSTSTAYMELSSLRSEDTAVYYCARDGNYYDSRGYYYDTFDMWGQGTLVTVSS VL: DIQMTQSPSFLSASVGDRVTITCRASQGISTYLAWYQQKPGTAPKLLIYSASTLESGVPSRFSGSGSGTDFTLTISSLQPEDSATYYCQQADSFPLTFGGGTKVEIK"
value_observed = 128


Turning now to a further record.
Query: In one line, give reported Relative Migration (%) (HUVEC migration assay) of the entry VH6/Vk0 (antibody, V domains shown, CDR-grafted variant of the IgG1-based anti-cMet antibody 1E4; also called anti-cMet candidate antibody VH6/Vk0) VH: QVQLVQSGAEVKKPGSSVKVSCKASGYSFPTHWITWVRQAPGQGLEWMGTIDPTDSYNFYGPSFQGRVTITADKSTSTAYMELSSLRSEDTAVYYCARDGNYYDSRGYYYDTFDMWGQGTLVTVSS VL: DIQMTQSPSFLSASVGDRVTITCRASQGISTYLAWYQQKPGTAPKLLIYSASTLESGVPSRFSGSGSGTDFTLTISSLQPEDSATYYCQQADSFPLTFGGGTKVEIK .
Result: 152

Just for reference, patent US20200271647A1 is where these values come from.
